src = ChEMBL document CHEMBL1201862

Kindly supply the reported GI50 values for the records listed here.
System: HOP-92
Experiment: NCI tumour cell line growth inhibition, 48 h
The source made the active and inactive calls. No stated cut-off is given here; in the data, active = GI50 up to about 1.1 µM and inactive = higher.

// GI50 (HOP-92) for C=C(Cl)C(Cl)(CCl)CCC(Br)C(C)(C)Br (configuration not stated) = > 10 µM (inactive)

// GI50 (HOP-92) for "Cn1cc(NC(=O)Nc2cc(C(=O)Nc3cc(C(=O)Nc4ccc(S(=O)(=O)O)c5cc(S(=O)(=O)O)ccc45)n(C)c3)n(C)c2)cc1C(=O)Nc1cc(C(=O)Nc2ccc(S(=O)(=O)O)c3cc(S(=O)(=O)O)ccc23)n(C)c1" = 51.9 µM (inactive)

// GI50 (HOP-92) for O=c1[nH]c2c(O)cccc2c2cc3c(c(O)c12)OCO3 [NARCIPRIMINE] = 13.4 µM (inactive)

// GI50 (HOP-92) for "C(=C1\CCC/C(=C/c2ccccc2)C1=NNc1ccccc1)/c1ccccc1" = > 100 µM (inactive)

// GI50 (HOP-92) for "CN(C)C(=O)Oc1c(-c2ccccc2)c(=O)n2c3ccccc3n3c(=O)n(C)c(=O)c1c23" = > 100 µM (inactive)

// GI50 (HOP-92) for CC(=O)c1ccc(N2C(=O)C3c4[nH]c5ccccc5c4C4CCC(C(C)(C)C)CC4C3C2=O)cc1 (configuration not stated) = 20.8 µM (inactive)

// GI50 (HOP-92) for COC(=O)[C@]1(C)C(OC)=CC(=O)C2C1[C@H]1CCC[C@@H]21 (some centres not stated) = > 100 µM (inactive)

###

Tested on: A498
Test: NCI tumour cell line growth inhibition, 48 h
Activity calls are given as the source filed them. Rule as the data show it: active = GI50 up to about 1.1 µM and inactive = higher.
// allowed return values: active, inactive

Which outcome was assigned to O=C(COc1ccc(Br)cc1Br)N1N=C(c2ccc([N+](=O)[O-])o2)CC1(O)c1ccccc1 (centres undefined) in this test?
inactive

Which outcome was assigned to "CC1(C)N=C(N)N=C(N)N1c1cccc(C(=O)Nc2ccc(S(=O)(=O)F)cc2)c1" in this test?
inactive

Which outcome was assigned to COC(=O)C1=C(OC(=O)/C(=C/c2ccc(Cl)cc2)c2ccccc2)C(C(=O)OC)[C@@]2(O)[C@@H](C(=O)OC)[C@H](C)C[C@@H]1[C@@H]2C(=O)OC (some centres undefined) in this test?
inactive

Which outcome was assigned to "CNc1ccccc1S(=O)(=O)c1ccccc1[N+](=O)[O-]" in this test?
inactive

Which outcome was assigned to CC(C)=CCNc1ncnc2c1c(C#N)cn2C1OC(CO)C(O)C1O (centres undefined) in this test?
inactive

Which outcome was assigned to "CC1c2c(Cl)nc3ccccc3c2Oc2c1c(Cl)nc1ccccc21" in this test?
inactive

Which outcome was assigned to "O=C(O)CCCc1nc2c(n1Cc1ccccc1)C(=O)c1ccccc1C2=O" in this test?
inactive

Which outcome was assigned to "COC(=O)CNC(=O)CSc1nnc(COc2ccc(Cl)cc2)n1-c1ccccc1" in this test?
inactive

Which outcome was assigned to "CN(C)C(=O)Oc1c(-c2ccccc2)c(=O)n2c3ccccc3n3c(=O)n(C)c(=O)c1c23" in this test?
inactive

Which outcome was assigned to "O=C(N/N=C/c1ccccc1O)N/N=C/c1ccccc1O" in this test?
inactive

Which outcome was assigned to CCC(C)C1=C(O)[N+]2([O-])Oc3ccc(-c4c(O)c(O)c(-c5ccc(OC(C)=O)cc5)c(OC(C)=O)c4OC(C)=O)cc3OC2(C(C)CC)C(=O)N1O (centres undefined) in this test?
inactive

Which outcome was assigned to "CC1(C)CCC2=C(O1)/C(=N\Nc1ccc(S(N)(=O)=O)cc1)c1ccccc1C2=O" in this test?
inactive

Which outcome was assigned to "O=[N+]([O-])c1cc([As](Br)c2ccc(O)c([N+](=O)[O-])c2)ccc1O" in this test?
inactive

Which outcome was assigned to C=C1CC[C@@H](CCC2CCC3(OC2)O[C@]2(O)CC[C@@]3(C)OC2(C)C)C(C)(C)[C@H]1C/C=C1\CCOC1=O (some centres undefined) in this test?
inactive

Which outcome was assigned to "C/C(CC(=O)CCCC(=O)Nc1ccc(Cl)cc1Cl)=N/NC(=O)CC#N" in this test?
inactive

Which outcome was assigned to "CC(C)=CC(=O)C[C@H]1C(=O)O[C@@H]2C[C@H]3C(C)=CC(=O)[C@@H](O)[C@]3(C)[C@H]3[C@@]4(O)OC[C@]32[C@@H]1[C@@H](C)[C@H]4O" in this test?
active

Which outcome was assigned to "CC(=NNC(=S)Nc1cccc(C)c1)c1cccc(C(C)=NNC(=S)Nc2cccc(C)c2)n1" in this test?
inactive

Which outcome was assigned to "COc1ccc2[nH]c3c([N+](=O)[O-])ccc(Cl)c3c(=O)c2c1" in this test?
inactive

Which outcome was assigned to "Cc1ccc(S(=O)(=O)NNC(=O)c2sc(-c3nc(C)c(C(=O)NNS(=O)(=O)c4ccc(C)cc4)s3)nc2C)cc1" in this test?
inactive

Which outcome was assigned to "CNc1nncc2[nH]cnc12" in this test?
inactive

Which outcome was assigned to "CCOc1cc2c(cc1O)CC[C@@H]1[C@@H]2CC[C@]2(C)[C@@H](O)CC[C@@H]12" in this test?
inactive

Which outcome was assigned to C/C=C(\C)c1cc(=O)c2c(C)cc3c(c2o1)C(=O)c1c(O)c(C2CC(C)(N(C)C)C(OC(C)=O)C(C)O2)cc(C2CC(N(C)C)C(O)C(C)O2)c1C3=O (centres undefined) in this test?
inactive

Which outcome was assigned to COC(=O)C(=O)C(C(=O)C(=O)Nc1ccccc1OC)c1nc2ccc([N+](=O)[O-])cc2nc1O (centres undefined) in this test?
inactive

Which outcome was assigned to CO/N=C1\CC(NC(=O)CNC(=O)OC(C)(C)C)c2ccsc21 (centres undefined) in this test?
inactive

Which outcome was assigned to CN(CCS(=O)(=O)N1C(=O)C2CCCN2C(=O)[C@@H]1Cc1ccccc1)C(=O)OCc1ccccc1 (some centres undefined) in this test?
inactive

Which outcome was assigned to "O=c1sc(-c2nc3ccccc3[nH]2)c(/N=C/c2ccccc2)n1-c1ccccc1" in this test?
inactive

Which outcome was assigned to CCCCC1NC=Nc2c1ccc1c2[nH]c2ccccc21 (centres undefined) in this test?
inactive

Which outcome was assigned to CCCCc1c2c(nc3c1CCCC3O)/C(=C/c1ccccc1)CCC2 (centres undefined) in this test?
inactive

Which outcome was assigned to COc1cc(C2c3cccc4cccc(c34)C3CCC(=O)N32)cc(O)c1O (centres undefined) in this test?
inactive

Which outcome was assigned to COC1=CC2(CC(OC)=C1OC)OC21COc2ccccc2C1=O (centres undefined) in this test?
inactive

Which outcome was assigned to "COc1ccc(CCNC(=O)Cc2cc(OC)c(OC)cc2CO)cc1OC" in this test?
inactive

Which outcome was assigned to CC(=O)c1ccc(N2C(=O)C3c4[nH]c5ccccc5c4C4CCC(C(C)(C)C)CC4C3C2=O)cc1 (centres undefined) in this test?
inactive

Which outcome was assigned to COC(=O)CC(C#N)(OP1(=O)OC(c2ccccc2)C(C)N1C)c1ccccc1 (centres undefined) in this test?
inactive

Which outcome was assigned to Brc1ccc2c(c1)C1C(CO2)C(c2ccccc2)=NN1c1ccccc1 (centres undefined) in this test?
inactive
